Data origin, for the record: ChEMBL document CHEMBL5252611

test: Selectivity index, ratio of CC50 for cytotoxicity against human HG23 cells infected with Norovirus Genogroup 1 to EC50 for antiviral activity against Norovirus Genogroup 1 infected in human HG23 cells; assay type: toxicity, cell-based; settings: read-out: Ratio CC50/EC50
Exercise: for every item that follows, state its recorded selectivity ratio.

Challenge: Consider the compound shown here: Nc1ncc(F)c2c1ncn2C1=C[C@H](CO)[C@@H](O)[C@H]1O What is its recorded selectivity ratio?
Response given: > 2760

Challenge: So what's the measured selectivity ratio for this one? C[C@@]1(O)[C@H](O)[C@@H](CO)O[C@H]1n1ccc(N)nc1=O
Response given: > 22

---

experiment: Selectivity index, ratio of CC50 for cytotoxicity against African green monkey Vero cells infected with Tacaribe virus TRVL11573 by neutral red dye based analysis to EC50 for antiviral activity against Tacaribe virus TRVL11573 infected in African green monkey Vero cells by neutral red dye based analysis; type: toxicity, cell-based; details: read-out: Ratio CC50/EC50
EXPERIMENTAL_READOUT: selectivity ratio
// return a plain number; no unit text

Challenge: Param item = NC(=O)c1ncn([C@@H]2O[C@H](CO)[C@@H](O)[C@H]2O)n1 ; retrieve measured selectivity ratio.
Response given: 130

Challenge: If you can, please state the reported selectivity ratio value of Nc1nc(F)cc2c1ncn2C1=C[C@H](CO)[C@@H](O)[C@H]1O .
Response given: 5.8

---

Exercise: for every item that follows, state its recorded CC50.
test: Cytotoxicity against African green monkey Vero cells infected with Marburgvirus Angola; type: toxicity, cell-based; settings: chlorocebus sabaeus

Challenge: Entry NC(=O)c1nc(F)cnc1O [FAVIPIRAVIR] has what CC50?
Response given: > 1000 µM

Challenge: Endpoint output: CC50 of Nc1ncc(F)c2c1ncn2C1=C[C@H](CO)[C@@H](O)[C@H]1O . Value?
Response given: > 100 µM

---

assay: Selectivity index, ratio of CC50 for cytotoxicity against African green monkey Vero 76 cells infected with Rift Valley fever virus MP-12 by neutral red dye based analysis to EC50 for antiviral activity against Rift Valley fever virus MP-12 infected in African green monkey Vero 76 cells by neutral red dye based analysis; type: toxicity, cell-based; conditions: read-out: Ratio CC50/EC50
EXPERIMENTAL_READOUT: selectivity ratio
# respond with the number and nothing more

Challenge: Need selectivity ratio of Nc1nc(F)cc2c1ncn2C1=C[C@H](CO)[C@@H](O)[C@H]1O , thanks.
Response given: 4

---

For each of the compounds below, state its CC50.
experiment: Cytotoxicity against African green monkey Vero cells infected with Zaire ebolavirus; type: toxicity, cell-based; settings: chlorocebus sabaeus

Challenge: Requested field: CC50. Item: Nc1ncc(F)c2c1ncn2C1=C[C@H](CO)[C@@H](O)[C@H]1O
Response given: > 100 µM

Challenge: Give the measured CC50 of NC(=O)c1nc(F)cnc1O .
Response given: > 1000 µM

---

assay: Cytotoxicity against African green monkey Vero cells infected with Tacaribe virus TRVL11573 by visual analysis; type: toxicity, cell-based; conditions: chlorocebus sabaeus
EXPERIMENTAL_READOUT: CC50 (µM)
Just the number please, in µM, no unit attached.

Challenge: Item under review: Nc1nc(F)cc2c1ncn2C1=C[C@H](CO)[C@@H](O)[C@H]1O . Reported CC50?
Response given: 75

---

tested on: Marburgvirus; assay: Antiviral activity against Marburgvirus Angola infected in African green monkey Vero cells; assay type: functional, organism-based; conditions: Orthomarburgvirus
EXPERIMENTAL_READOUT: pEC50
Please keep in mind that pEC50 is minus log10 of the molar concentration; only the number is needed.

Challenge: Notebook entry, Marburgvirus assay: pEC50 of NC(=O)c1nc(F)cnc1O = ?
Response given: 3.78

---

tested on: Influenza A virus; assay: Antiviral activity against influenza A virus California/7/2009(H1N1) infected in MDCK cells; type: functional, organism-based
EXPERIMENTAL_READOUT: EC50 (µM)
Expressed in µM, but write only the number.

Challenge: Which EC50 value is on record for NC(=O)c1ncn([C@@H]2O[C@H](CO)[C@@H](O)[C@H]2O)n1 ?
Response given: 21.9

---

test: Cytotoxicity against MDCK cells infected with influenza A virus California/7/2009(H1N1); format: toxicity, cell-based, Canis lupus familiaris; conditions: dog
Consider the following molecules; for each one, report its CC50.

Challenge: Given NC(=O)c1ncn([C@@H]2O[C@H](CO)[C@@H](O)[C@H]2O)n1 , state its recorded CC50.
Response given: > 4.09 mM

Challenge: Recorded CC50 of Nc1ncc(F)c2c1ncn2C1=C[C@H](CO)[C@@H](O)[C@H]1O , please.
Response given: > 0.357 mM

---

experiment: Selectivity index, ratio of CC50 for cytotoxicity against African green monkey Vero cells infected with Zaire ebolavirus to EC50 for antiviral activity against Zaire ebolavirus infected in African green monkey Vero cells; assay type: toxicity, cell-based; details: read-out: Ratio CC50/EC50
EXPERIMENTAL_READOUT: selectivity ratio

Challenge: Please report the recorded selectivity ratio for Nc1ncc(F)c2c1ncn2C1=C[C@H](CO)[C@@H](O)[C@H]1O .
Response given: > 538

Challenge: What does the record list as selectivity ratio for NC(=O)c1nc(F)cnc1O ?
Response given: > 43
